Measured inhibition by item
protocol: growth inhibition, single agents and combos, HTB85, cell-based, BGB or cisplatin IC20 combos, synergistic combos for chromothripsis tumors (AID 1671453);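 further: cells exposed for 96 hours before readout; 0% = vehicle DMSO and 100% = high DMSO killing control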
run.parameters: HTB85 osteosarcoma cells, drug combinations, measured here: with BGB IC20, at 5 µM, stronger effect = higher value
Non-standard residues stand in square brackets, D forms with d. Residues, ends and D or L forms follow the SMILES beside them. Dolaproine = CO[C@@H]([C@@H]1CCCN1)[C@@H](C)C(=O)O; Dil = CC[C@H](C)[C@H](NC)[C@@H](CC(=O)O)OC; NMeV = CN[C@H](C(=O)O)C(C)C

molecule	inhibition
CC[C@H](C)[C@@H]([C@@H](CC(=O)N1CCC[C@H]1[C@H](OC)[C@@H](C)C(=O)N[C@@H](Cc1ccccc1)C(=O)O)OC)N(C)C(=O)[C@@H](NC(=O)[C@@H](NC)C(C)C)C(C)C (H-[NMeV]V[Dil][Dolaproine]F-OH)	59.7%
C=C1CCC(O)CC1=CC=C1CCCC2(C)C1CCC2C(C)C=CC(C)C(C)C (centres undefined)	9.36%
CCC1(O)C(=O)OCc2c1cc1n(c2=O)Cc2cc3cc(O)ccc3nc2-1 (centres undefined)	98%
CC(C)C(=O)SCCCCCCC(=O)Nc1nc(-c2ccccc2)cs1	19%
CC=C1NC(=O)C2CSSCCC=CC(CC(=O)NC(C(C)C)C(=O)N2)OC(=O)C(C(C)C)NC1=O (centres undefined)	99.9%
O=c1[nH]cnc2c1ncn2C1CCC(CO)O1 (centres undefined)	-39.1%
COc1ccccc1S(=O)(=O)Nc1ccc2c(c1)CN(C)C(=O)N2	38.2%
Cc1cc(C)cc(C(=O)NOCCCCCC(=O)NO)c1	96.8%
Cc1ccc(NC(=O)CCCCCC(=O)Nc2ccccc2N)cc1	31.2%
